The reported numbers originate from the supplement of paper PMC11865577.

The entries below come with measured pull-down binding Z-score values attached.
# System: TO-N3-2 (biotin conjugate)
# Procedure Text: pull-down binding Z-score (relative to library population); higher = stronger binding
# Condition Info: RNA library: Library-2
// return a plain number; no unit text

[[record]]
chain = "CUUGAUUUAAUGUCAUACAAUUAAG [hsa-mir-124-2]"
readout_number = -0.734


Data request: Which measured pull-down binding Z-score value corresponds to GGUUGUUUAAUUAGGAACCAACU [hsa-mir-190b] ?
Data returned: -0.593

Data request: Same question, CUUCUGCUGCUCUUCAACCUGAAGAAGAGCAAGAAGAAG this time
Data returned: -0.79

Data request: Ok, now GCUACUGUCUGCACCUGUCACUAGCAGU [hsa-mir-130a]
Data returned: 1.58

Data request: Moving on to UCAGUUGUAAACAUUCAAAAAGAAAUUGA
Data returned: 0.216

Data request: Continue with GGGCAGGGAGGGCAGGGCAGGCUCUGGGGUGGGGGGUCUGUGAGUCAGCCACGGCUC [hsa-mir-4516]
Data returned: 4.69

Data request: Input AUAGAUUAUGUACCACUAAAGUCUGCUACGUGUAUAACACGUUGCAAUUUAGGUGGUGCUGUCUGU
Data returned: -0.77

Data request: Then this sequence: GUUGGAUAAUGAUGCACUCAACAACAUUAUCAAC
Data returned: -0.9

Data request: Also GGGGUCUUGCUCUAUU [hsa-mir-6088] ?
Data returned: 0.111

Data request: Also ACAAGGCUAUUGAUGGUGGUGUCACUCGUGACAUAGCAUCUACAGAUACUUGU [SHAPE_invitro_SARS-CoV-2_Motif_170] , if possible.
Data returned: -0.052

Data request: For GGGCCCCAAGACUCGGGGUUU [hsa-mir-4651] then?
Data returned: 0.197

Data request: Subsequent entry: CACCAUCUGGUG [DMSMaPseq_invitro_SARS-CoV-2_Motif_188]
Data returned: -1.15

Data request: Try the sequence GGGAGCGGCCCUCACAUUGAUGGCUCCU [hsa-mir-6727]
Data returned: 0.257

Data request: What about this sequence? GAGGCACUUAAAAUGACCAUGGCCUC [IAV_invivo_NS1_NEP_8_Motif_6+IAV_invivo_NS1_NEP_8_Motif_6]
Data returned: -0.305

---

# Tested on: TO-N3-2 (biotin conjugate)
# Procedure Text: pull-down binding Z-score (relative to library population); higher = stronger binding
# Condition Info: RNA library: Library-2
Catalogue of sequences with associated pull-down binding Z-score
The answer should be written as a number, with no unit following it.

[[record]]
chain = "AACGAACUUUAAAAUCUGUGUGGCUGUCACUCGGCUGCAUGCUUAGUGCACUCACGCAGUAUAAUUAAUAACUAAUUACUGUCGUU"
target_or_system = "TO-N3-2 (biotin conjugate)"
readout_number = -0.131

[[record]]
chain = "UAUUUGCCUAUAGAUA"
target_or_system = "TO-N3-2 (biotin conjugate)"
readout_number = -0.821

[[record]]
chain = "GGUAAGGUCUUUCAGCC [hsa-mir-7150]"
target_or_system = "TO-N3-2 (biotin conjugate)"
readout_number = 0.413


Data request: I have this sequence here, CUUUCCUUUUUGUCUGUACUGGGAAG [hsa-mir-373] , and I need its recorded pull-down binding Z-score.
Data returned: -1.12

Data request: Record: GAAGCGAGAUGUUUGUCUAAA [hsa-mir-6835]
Data returned: 0.915

Data request: Same read-out for UGUAUGUGUAAAUACAUAUCCACACA [hsa-mir-4789] ?
Data returned: -0.589
